Molecular target: T1, mArtemin-MMH (mouse)
T1 construct: also called msArtemin-MMH; msARTN.mmh
T1 chain: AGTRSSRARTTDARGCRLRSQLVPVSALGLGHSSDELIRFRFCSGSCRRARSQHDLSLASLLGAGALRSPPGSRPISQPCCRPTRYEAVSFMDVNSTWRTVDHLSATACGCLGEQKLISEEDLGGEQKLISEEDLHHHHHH
Assay: BLI (Octet HTX), mAb captured on AHC tips, artemin at 7.5 nM, 25 C
PARAMETER_MEASURED: Artemin Binding Response (nm)
Field: numeric (nm). Do not append units.

Some binders with known Artemin Binding Response (nm) results, for comparison:
- H4H33335P (antibody, human IgG4 S228P, kappa, V domains shown, Fully human antibody; also called Artemin mAb; anti-ARTN antibody) VH: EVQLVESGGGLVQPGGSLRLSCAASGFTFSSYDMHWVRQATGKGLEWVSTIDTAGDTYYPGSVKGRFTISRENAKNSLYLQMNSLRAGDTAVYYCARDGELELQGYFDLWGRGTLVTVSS VL: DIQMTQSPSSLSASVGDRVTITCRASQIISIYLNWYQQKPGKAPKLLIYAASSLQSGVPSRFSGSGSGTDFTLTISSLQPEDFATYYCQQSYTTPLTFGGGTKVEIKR: 0.05
- H4H33349P (antibody, human IgG4 S228P, kappa, V domains shown, Fully human antibody; also called Artemin mAb; anti-ARTN antibody) VH: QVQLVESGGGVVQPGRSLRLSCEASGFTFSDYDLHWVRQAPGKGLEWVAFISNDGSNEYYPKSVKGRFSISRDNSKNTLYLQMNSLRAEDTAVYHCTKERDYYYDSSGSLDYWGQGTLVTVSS VL: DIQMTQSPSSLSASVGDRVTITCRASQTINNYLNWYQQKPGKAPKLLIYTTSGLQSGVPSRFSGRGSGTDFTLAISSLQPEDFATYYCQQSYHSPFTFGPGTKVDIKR: 0.11

In the following, a different binder is considered.
Tell me its Artemin Binding Response (nm) given H4H33336P (antibody, human IgG4 S228P, kappa, V domains shown, Fully human antibody; also called Artemin mAb; anti-ARTN antibody) VH: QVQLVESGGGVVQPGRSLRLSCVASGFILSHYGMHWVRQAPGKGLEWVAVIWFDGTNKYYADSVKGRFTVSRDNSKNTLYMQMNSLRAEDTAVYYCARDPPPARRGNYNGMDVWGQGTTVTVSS VL: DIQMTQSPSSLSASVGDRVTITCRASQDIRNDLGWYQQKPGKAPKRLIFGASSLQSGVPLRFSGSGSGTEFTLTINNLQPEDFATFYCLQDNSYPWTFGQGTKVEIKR as the entry.
0
